- protocol_details: in vivo
- condition_set: rat, po, 62.2 mg/kg
endpoint_label: concentration at 1.5 h
Record the result as a number with its unit.

Ask | Answer with reported concentration at 1.5 h of CC(C)(CO)C(O)C(=O)NCCC(=O)NCCSC(=O)c1cccnc1 (stereo not shown) [S-nicotinate]
Reply | 700 ng/mL

---

- protocol_details: Plasma nicotinic acid levels in rats after oral administration (Table II)
- condition_set: rat, plasma, po, 20 mg/kg
endpoint_label: concentration at 0.5 h
Record the result as a number with its unit.

Ask | Answer with reported concentration at 0.5 h of O=C(O)c1cccnc1
Reply | 42800 ng/mL

---

- protocol_details: Plasma nicotinic acid levels in rats after oral administration (Table II)
- condition_set: rat, plasma, po, 20 mg/kg
endpoint_label: concentration at 1.5 h (µg/mL)
All answers are understood in µg/mL, so give the number only.

Ask | Answer with reported concentration at 1.5 h of O=C(O)c1cccnc1
Reply | 6.7

---

- protocol_details: in vivo
- condition_set: rat, po, 62.2 mg/kg
endpoint_label: concentration at 0.5 h (ng/mL)
All answers are understood in ng/mL, so give the number only.

Ask | Answer with reported concentration at 0.5 h of CC(C)(CO)C(O)C(=O)NCCC(=O)NCCSC(=O)c1cccnc1 (stereo not shown) [S-nicotinate]
Reply | 5200

---

- protocol_details: Plasma nicotinic acid levels in rats after oral administration (Table II)
- condition_set: rat, plasma, po, 20 mg/kg
endpoint_label: concentration at 2 h (ng/mL)
All answers are understood in ng/mL, so give the number only.

Ask | Answer with reported concentration at 2 h of O=C(O)c1cccnc1
Reply | 400

---

- protocol_details: in vivo
- condition_set: rat, po, 62.2 mg/kg
endpoint_label: concentration at 1 h (ng/mL)
All answers are understood in ng/mL, so give the number only.

Ask | Answer with reported concentration at 1 h of CC(C)(CO)C(O)C(=O)NCCC(=O)NCCSC(=O)c1cccnc1 (stereo not shown) [S-nicotinate]
Reply | 3300

---

- protocol_details: Acute toxicity in mice (Table IV)
- condition_set: mouse, in vivo, iv
endpoint_label: LD50 (mg/kg)
All answers are understood in mg/kg, so give the number only.

Ask | Answer with reported LD50 of CC(C)(CO)C(O)C(=O)NCCC(=O)NCCSC(=O)c1cccnc1 (stereo not shown) [S-nicotinate]
Reply | 1600
